System: Enterococcus faecalis
Protocol description: Antibacterial activity against vancomycin A resistant Enterococcus faecalis isolate SR-7914 by broth dilution method
Assay type: functional
Condition context: isolate SR7914
Measured MIC by item
All answers are understood in µg/mL, so give the number only.

[[record]]
smiles_representation = "Cc1ccc(C(=O)Nc2cccc(CN[C@]3(C)C[C@@H](O[C@@H]4[C@@H](Oc5c6cc7cc5Oc5ccc(cc5Cl)[C@@H](O)[C@@H](N)C(=O)N[C@@H](CC(N)=O)C(=O)N[C@H]7C(=O)N[C@H]5C(=O)N[C@H](C(=O)N[C@H](C(=O)O)c7cc(O)cc(O)c7-c7cc5ccc7O)[C@H](O)c5ccc(c(Cl)c5)O6)O[C@@H](CO)[C@H](O)[C@H]4O)O[C@H](C)[C@@H]3O)c2)c([N+](=O)[O-])c1OCc1ccccc1"
unit_symbol = "µg/mL"
meas_value = 8


// switching to the query compound
# input Any idea what its MIC is? The compound is CN[C@H](CC(C)C)C(=O)N[C@H]1C(=O)N[C@@H](CC(N)=O)C(=O)N[C@H]2C(=O)N[C@H]3C(=O)N[C@H](C(=O)N[C@H](C(=O)O)c4cc(O)cc(O)c4-c4cc3ccc4O)[C@H](O)c3ccc(c(Cl)c3)Oc3cc2cc(c3O[C@H]2O[C@@H](CO)[C@H](O)[C@@H](O)[C@@H]2O[C@@H]2C[C@@](C)(NCc3cccc(NC(=O)c4ccc(C)c(OCc5ccccc5)c4[N+](=O)[O-])c3)[C@@H](O)[C@@H](C)O2)Oc2ccc(cc2Cl)[C@H]1O
# output 2

###

System: Enterococcus faecalis
Protocol description: Antibacterial activity against vancomycin susceptible Enterococcus faecalis isolate SR1004 by broth dilution method
Assay type: functional
Measured MIC by item
All answers are understood in µg/mL, so give the number only.

[[record]]
compound = "Cc1ccc(C(=O)Nc2cccc(CN[C@]3(C)C[C@@H](O[C@@H]4[C@@H](Oc5c6cc7cc5Oc5ccc(cc5Cl)[C@@H](O)[C@@H](N)C(=O)N[C@@H](CC(N)=O)C(=O)N[C@H]7C(=O)N[C@H]5C(=O)N[C@H](C(=O)N[C@H](C(=O)O)c7cc(O)cc(O)c7-c7cc5ccc7O)[C@H](O)c5ccc(c(Cl)c5)O6)O[C@@H](CO)[C@H](O)[C@H]4O)O[C@H](C)[C@@H]3O)c2)c([N+](=O)[O-])c1OCc1ccccc1"
reported_property = "MIC"
unit_symbol = "µg/mL"
meas_value = 2

[[record]]
compound = "CN[C@H](CC(C)C)C(=O)N[C@H]1C(=O)N[C@@H](CC(N)=O)C(=O)N[C@H]2C(=O)N[C@H]3C(=O)N[C@H](C(=O)N[C@H](C(=O)O)c4cc(O)cc(O)c4-c4cc3ccc4O)[C@H](O)c3ccc(c(Cl)c3)Oc3cc2cc(c3O[C@H]2O[C@@H](CO)[C@H](O)[C@@H](O)[C@@H]2O[C@@H]2C[C@@](C)(NCc3cccc(NC(=O)c4ccc(C)c(OCc5ccccc5)c4[N+](=O)[O-])c3)[C@@H](O)[C@@H](C)O2)Oc2ccc(cc2Cl)[C@H]1O"
reported_property = "MIC"
unit_symbol = "µg/mL"
meas_value = 0.25


// switching to the query compound
# input Any idea what its MIC is? The compound is CN[C@H](CC(C)C)C(=O)N[C@H]1C(=O)N[C@@H](CC(N)=O)C(=O)N[C@H]2C(=O)N[C@H]3C(=O)N[C@H](C(=O)N[C@H](C(=O)O)c4cc(O)cc(O)c4-c4cc3ccc4O)[C@H](O)c3ccc(c(Cl)c3)Oc3cc2cc(c3O[C@@H]2O[C@H](CO)[C@@H](O)[C@H](O)[C@H]2O[C@H]2C[C@](C)(N)[C@H](O)[C@H](C)O2)Oc2ccc(cc2Cl)[C@H]1O [VANCOMYCIN]
# output 2

###

System: Staphylococcus aureus
Protocol description: Antibacterial activity against vancomycin intermediate Staphylococcus aureus ATCC 700787 by broth dilution method
Assay type: functional
Reported property: MIC
State the value with its unit after it.

[[record]]
compound = "CN[C@H](CC(C)C)C(=O)N[C@H]1C(=O)N[C@@H](CC(N)=O)C(=O)N[C@H]2C(=O)N[C@H]3C(=O)N[C@H](C(=O)N[C@H](C(=O)O)c4cc(O)cc(O)c4-c4cc3ccc4O)[C@H](O)c3ccc(c(Cl)c3)Oc3cc2cc(c3O[C@@H]2O[C@H](CO)[C@@H](O)[C@H](O)[C@H]2O[C@H]2C[C@](C)(N)[C@H](O)[C@H](C)O2)Oc2ccc(cc2Cl)[C@H]1O [VANCOMYCIN]"
reported_property = "MIC"
meas_value = "8 µg/mL"

[[record]]
compound = "Cc1ccc(C(=O)Nc2cccc(CN[C@]3(C)C[C@@H](O[C@@H]4[C@@H](Oc5c6cc7cc5Oc5ccc(cc5Cl)[C@@H](O)[C@@H](N)C(=O)N[C@@H](CC(N)=O)C(=O)N[C@H]7C(=O)N[C@H]5C(=O)N[C@H](C(=O)N[C@H](C(=O)O)c7cc(O)cc(O)c7-c7cc5ccc7O)[C@H](O)c5ccc(c(Cl)c5)O6)O[C@@H](CO)[C@H](O)[C@H]4O)O[C@H](C)[C@@H]3O)c2)c([N+](=O)[O-])c1OCc1ccccc1"
reported_property = "MIC"
meas_value = "4 µg/mL"


// switching to the query compound
# input Any idea what its MIC is? The compound is CN[C@H](CC(C)C)C(=O)N[C@H]1C(=O)N[C@@H](CC(N)=O)C(=O)N[C@H]2C(=O)N[C@H]3C(=O)N[C@H](C(=O)N[C@H](C(=O)O)c4cc(O)cc(O)c4-c4cc3ccc4O)[C@H](O)c3ccc(c(Cl)c3)Oc3cc2cc(c3O[C@H]2O[C@@H](CO)[C@H](O)[C@@H](O)[C@@H]2O[C@@H]2C[C@@](C)(NCc3cccc(NC(=O)c4ccc(C)c(OCc5ccccc5)c4[N+](=O)[O-])c3)[C@@H](O)[C@@H](C)O2)Oc2ccc(cc2Cl)[C@H]1O
# output 2 µg/mL

###

Test system: Staphylococcus aureus
Protocol description: Antibacterial activity against vancomycin intermediate Staphylococcus aureus ATCC 700787 by broth dilution method
Format: functional
Reported property: MIC

# input Any idea what its MIC is? The compound is C[C@H]1O[C@H](O[C@@H]2[C@@H](Oc3c4cc5cc3Oc3ccc(cc3Cl)[C@@H](O)[C@@H](N)C(=O)N[C@@H](CC(N)=O)C(=O)N[C@H]5C(=O)N[C@H]3C(=O)N[C@H](C(=O)N[C@H](C(=O)O)c5cc(O)cc(O)c5-c5cc3ccc5O)[C@H](O)c3ccc(c(Cl)c3)O4)O[C@@H](CO)[C@H](O)[C@H]2O)C[C@@](C)(N)[C@H]1O
# output > 64 µg/mL
